Biological target: Human-derived nicotinamide adenine dinucleotide phosphate-dependent steroid dehydrogenase (NSDHL) (Homo sapiens (Human))
Sequence (Q15738 whole entry): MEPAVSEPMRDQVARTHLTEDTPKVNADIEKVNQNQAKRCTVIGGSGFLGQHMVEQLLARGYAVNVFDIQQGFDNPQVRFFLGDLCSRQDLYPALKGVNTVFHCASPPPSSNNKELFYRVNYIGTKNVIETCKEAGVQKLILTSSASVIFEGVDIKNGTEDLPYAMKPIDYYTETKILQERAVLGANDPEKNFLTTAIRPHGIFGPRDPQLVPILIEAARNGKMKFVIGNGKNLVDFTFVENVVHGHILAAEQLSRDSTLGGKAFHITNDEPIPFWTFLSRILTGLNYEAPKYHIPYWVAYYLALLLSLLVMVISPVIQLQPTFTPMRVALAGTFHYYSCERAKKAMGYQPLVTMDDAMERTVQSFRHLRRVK
Assay: NSDHL inhibitory activity evaluation: decrease of NADH fluorescence amplification when inhibitor releases NADH from NSDHL
Settings: recombinant NSDHL (16 μM, 50 μl) + NADH (50 μM, 50 μl), room temperature 10 min, Ex 340 nm/Em 460 nm, 96-well plate
Experimental: In order to evaluate the nicotinamide adenine dinucleotide phosphate-dependent steroid dehydrogenase (NSDHL) inhibitory activity of the compound provided in one aspect of the present invention, the following experiment was performed. Human-derived nicotinamide adenine dinucleotide phosphate-dependent steroid dehydrogenase (NADP-dependent steroid dehydrogenase-like; NSDHL) was expressed in large quantities in E. coli. […]
quantity.measured: IC50 (µM)
Form entry: value (µM) — number only.

Give the measured IC50 of O=C(O)CN1C(=O)/C(=C/c2cc(-c3ccc(F)cc3)ccc2OCc2ccc(C(=O)O)cc2)SC1=S .
10.4

Give the measured IC50 of O=C(O)CN1C(=O)/C(=C/c2cn(-c3ccc(F)cc3)nc2-c2cccc(Cl)c2)SC1=S .
12.8

Give the measured IC50 of COc1cccc(OCc2ccccc2)c1/C=C1\SC(=S)N(CC(=O)O)C1=O .
19.9

Give the measured IC50 of O=C(O)CN1C(=O)/C(=C/c2ccc(O)cc2OCc2ccccc2Br)SC1=S .
17.8

Give the measured IC50 of O=C(O)CN1C(=O)/C(=C/c2cc(Br)ccc2OCc2ccccc2I)SC1=S .
27.1
